# Tested target: T1, MBP-tagged PX domain of SNX5 (MBP-PX-SNX5) (human, UniProt Q9Y5X3 25-172)
# T1 construct: Phox homology (PX) domain of human sorting nexin 5; Cloned in pMAL-p4X; also called PX-SNX5-WT; source: E. coli BL21 (DE3), purified (amylose resin, SEC)
# T1 sequence (looked up): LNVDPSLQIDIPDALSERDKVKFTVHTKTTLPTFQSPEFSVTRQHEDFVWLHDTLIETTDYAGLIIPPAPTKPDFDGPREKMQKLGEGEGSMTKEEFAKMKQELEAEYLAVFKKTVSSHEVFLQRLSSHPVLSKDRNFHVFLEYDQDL
# Assay overview: microfluidic diffusional sizing; 57 nM FITC peptide tracked, MBP-PX-SNX5 proteins titrated 0.38-250 μM in PBS-10% glycerol; Fluidity One-W; hydrodynamic radius; one-site specific binding fit; apparent Kd
# Conditions used: both partners purified
Where no end group is shown, it is not given here.
Property label: pKd
FYI, pKd means -log10 of a concentration in mol per litre.

Req: Data request, read-out pKd, for RLPLDIQIFYCARPDEEPFVKIITVEEAKRR (also: FITC conjugated, position not given here, numbers count on: NCOA7-AS; Printed as NH2-...-COOH; Limits worked out from Tyr14, Gln11, Glu21 and Val24 as numbered in the structure; also called fluorescently labeled NCOA7-AS-NTD) [FITC conjugated NCOA7-AS peptide (NCOA7-AS-NTD-FITC)]
Resp: 5.85
